# Type: physicochemical
# conditionSummary: Dark control
readoutName: Final purity
# print the numeric value only

input: Note down Final purity recorded for COC[C@@]1(O)CC[C@@]2(C)[C@@H](CC[C@@H]3[C@@H]2CC[C@]2(C)[C@@H](C(=O)Cn4ccnc4)CC[C@@H]32)C1.O=C1O[C@H]([C@@H](O)CO)C(O)=C1O [Ascorbate (Form A)]
output: 96.8

input: For the compound COC[C@@]1(O)CC[C@@]2(C)[C@@H](CC[C@@H]3[C@@H]2CC[C@]2(C)[C@@H](C(=O)Cn4ccnc4)CC[C@@H]32)C1.O=C(O)C(O)C(O)C(=O)O [L(+)-Tartrate (Form B)] , give its reported Final purity.
output: 99.2

input: Answer with the recorded Final purity for the compound listed here: COC[C@@]1(O)CC[C@@]2(C)[C@@H](CC[C@@H]3[C@@H]2CC[C@]2(C)[C@@H](C(=O)Cn4ccnc4)CC[C@@H]32)C1.O=C(O)CC(O)(CC(=O)O)C(=O)O [Compound 1 Citrate (Form A)]
output: 99.5
